Recorded values, source ChEMBL document CHEMBL1961873.

# Target or test system: Ribosomal protein S6 kinase alpha-3 (Homo sapiens) (UniProt P51812);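 also: reported value is a mean inhibition figure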
# Sequence (P51812 whole entry): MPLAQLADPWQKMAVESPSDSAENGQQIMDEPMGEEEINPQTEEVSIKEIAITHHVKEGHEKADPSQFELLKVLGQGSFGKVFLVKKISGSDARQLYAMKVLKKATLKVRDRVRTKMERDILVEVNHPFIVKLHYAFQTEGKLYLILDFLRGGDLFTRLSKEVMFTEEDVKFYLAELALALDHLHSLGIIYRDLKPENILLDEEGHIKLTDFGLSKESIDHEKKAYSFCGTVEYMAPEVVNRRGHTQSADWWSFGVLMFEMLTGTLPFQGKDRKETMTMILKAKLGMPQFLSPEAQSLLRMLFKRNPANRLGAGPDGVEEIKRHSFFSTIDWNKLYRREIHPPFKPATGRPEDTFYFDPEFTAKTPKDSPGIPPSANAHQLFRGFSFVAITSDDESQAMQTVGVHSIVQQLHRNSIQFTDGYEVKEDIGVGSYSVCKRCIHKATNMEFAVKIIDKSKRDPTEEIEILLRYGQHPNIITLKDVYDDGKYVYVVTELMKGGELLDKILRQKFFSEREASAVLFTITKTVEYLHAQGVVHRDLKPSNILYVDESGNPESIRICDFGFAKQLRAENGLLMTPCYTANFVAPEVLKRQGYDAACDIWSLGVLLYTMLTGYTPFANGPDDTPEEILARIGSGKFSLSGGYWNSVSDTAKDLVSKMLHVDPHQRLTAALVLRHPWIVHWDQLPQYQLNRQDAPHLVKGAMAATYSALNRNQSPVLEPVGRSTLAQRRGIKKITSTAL
# Condition details: at 0.1 µM
Metric: inhibition (%)

compound=NC(=O)Cc1ccccc1Oc1nccc(-c2c(-c3ccc(F)cc3)ncn2C2CCNCC2)n1 metric=inhibition measurement_unit=% endpoint_value=0.99
compound=CS(=O)(=O)CCNCc1cc(-c2cc3c(Nc4ccc(OCc5cccc(F)c5)c(Cl)c4)ncnc3s2)cs1 metric=inhibition measurement_unit=% endpoint_value=1.24
compound=C[C@@H](Oc1cc(-n2cnc3ccc(OCC4CCN(C)CC4)cc32)sc1C(N)=O)c1ccccc1Cl metric=inhibition measurement_unit=% endpoint_value=4.17
compound=CCC(=O)Nc1ccc(C)c(-c2ccc(C(=O)NCC3CC3)cc2)c1 metric=inhibition measurement_unit=% endpoint_value=0.82
compound=O=C1NC(=O)C(c2cccc(Cl)c2)=C1Nc1ccc(Cl)c(C(=O)O)c1 metric=inhibition measurement_unit=% endpoint_value=1.25
compound=CS(=O)(=O)CCNCc1ccc(-c2ccc3ncnc(Nc4ccc(OCc5ccccc5)c(Br)c4)c3c2)o1 metric=inhibition measurement_unit=% endpoint_value=-0.55
compound=COc1cc(Nc2ncc3c(C)nc(-c4cccc(C(F)(F)F)c4)n3n2)cc(OC)c1OC metric=inhibition measurement_unit=% endpoint_value=5.91
compound=O=C(Nc1n[nH]c2nc(-c3ccc(O)cc3)c(Br)cc12)C1CC1 metric=inhibition measurement_unit=% endpoint_value=10.3
compound="COc1ccc2cc(-c3c(-c4ccncc4)nc(-c4ccc([S+](C)[O-])cc4C)n3C)ccc2c1 (stereo not given)" metric=inhibition measurement_unit=% endpoint_value=-0.38
compound=CCc1nccc2c1nc(-c1nonc1N)n2CC metric=inhibition measurement_unit=% endpoint_value=2.22
compound=COc1cc2ncn(-c3cc(OCCc4ccccc4)c(C(N)=O)s3)c2cc1OC metric=inhibition measurement_unit=% endpoint_value=0.83
compound=NC(=O)c1ccc(Oc2nccc(-c3c(-c4ccc(F)cc4)ncn3C3CCNCC3)n2)cc1 metric=inhibition measurement_unit=% endpoint_value=-0.35
compound=COc1ccc(-c2ccc3c(NC(=O)C4CC4)n[nH]c3n2)cc1 metric=inhibition measurement_unit=% endpoint_value=1.62
compound=NC(=O)c1cc(-c2ccc(F)cc2)cc(-c2ccncc2)c1N metric=inhibition measurement_unit=% endpoint_value=0.17
compound=CN(C)CCOc1ccc(-c2cc(-c3ccc4c(c3)CCC4=NO)c(-c3ccncc3)o2)cc1 metric=inhibition measurement_unit=% endpoint_value=-0.48
compound=CCc1ccc(Oc2nccc(-c3c(-c4ccc(F)cc4)ncn3C3CCNCC3)n2)cc1 metric=inhibition measurement_unit=% endpoint_value=3.03
compound=COc1cc(C)c(N(C)C(=O)CN(C)C)cc1Nc1nc(Nc2cccc(F)c2C(N)=O)c2cc[nH]c2n1 metric=inhibition measurement_unit=% endpoint_value=1.14
compound=CN1CCN(CCCNc2nc3ccc(Oc4ccc(NC(=O)Nc5cc(C(F)(F)F)ccc5F)cc4)cc3[nH]2)CC1 metric=inhibition measurement_unit=% endpoint_value=1.52
compound="Nc1nccc(-c2c(-c3ccc(F)cc3)ncn2C2CCC(O)CC2)n1 (stereo not given)" metric=inhibition measurement_unit=% endpoint_value=-0.92
compound=COc1ccc2cc(-c3c(-c4ccncc4)nc(-c4ccc(S(C)(=O)=O)cc4C)n3C)ccc2c1 metric=inhibition measurement_unit=% endpoint_value=4.66

====

# Target or test system: Serine/threonine-protein kinase pim-1 (Homo sapiens) (UniProt P11309);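 also: reported figures are mean percent inhibition of PIM1 kinase activity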
# Sequence (P11309 whole entry, looked up): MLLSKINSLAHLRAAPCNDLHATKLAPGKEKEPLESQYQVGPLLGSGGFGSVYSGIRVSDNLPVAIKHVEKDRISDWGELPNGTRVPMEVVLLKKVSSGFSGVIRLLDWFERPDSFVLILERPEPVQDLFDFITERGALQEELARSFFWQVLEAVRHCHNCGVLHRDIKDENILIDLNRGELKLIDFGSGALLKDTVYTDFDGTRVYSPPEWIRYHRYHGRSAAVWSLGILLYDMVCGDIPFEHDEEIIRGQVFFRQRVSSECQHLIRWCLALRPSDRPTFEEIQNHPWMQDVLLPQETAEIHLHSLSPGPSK
# Condition details: at 1 µM
This section presents compounds with their documented inhibition values.
Metric: inhibition (%)

structure_smiles=COc1cc(Nc2ncc(-c3ccccc3)o2)cc(OC)c1OC endpoint_value=2.12
structure_smiles=COc1cc(Nc2ncc3c(C)nc(-c4cccc(Oc5ccccc5)c4)n3n2)cc(OC)c1OC endpoint_value=1.16
structure_smiles=CCc1ccc(Oc2nccc(-c3c(-c4ccc(F)cc4)ncn3C3CCNCC3)n2)cc1 endpoint_value=1.74
structure_smiles=CN1CCN(CCCNc2nc3ccc(Oc4ccc(NC(=O)Nc5cc(C(F)(F)F)ccc5F)cc4)cc3[nH]2)CC1 endpoint_value=0.87
structure_smiles=NC(=O)c1cc(-c2ccncc2)cc(-c2ccccc2)c1N endpoint_value=1.24
structure_smiles=C[C@@H](Oc1cc(-n2cnc3ccc(OCC4CCN(C)CC4)cc32)sc1C(N)=O)c1ccccc1Cl endpoint_value=70
structure_smiles=C[C@@H](Oc1cc(-n2cnc3ccc(OC4CCN(C)CC4)cc32)sc1C(N)=O)c1ccccc1Cl endpoint_value=65.3
structure_smiles=O=C(NCC1CC1)c1ccc(-c2cccc(C(=O)NC3CC3)c2)cc1 endpoint_value=0.34
structure_smiles=Fc1ccc(-c2nc3n(c2-c2ccncc2)CCS3)cc1 endpoint_value=2.11
structure_smiles=CN(c1ccc(NC(=O)Nc2c(Cl)cccc2Cl)cc1)c1ccnc(Nc2cccc(CS(C)(=O)=O)c2)n1 endpoint_value=0.34
structure_smiles=COc1cccc(/C=N/Nc2ncnc3c2cnn3-c2cccc(OC)c2)c1 endpoint_value=1.58
structure_smiles=CCS(=O)(=O)c1ccc(OC)c(Nc2ncc(-c3ccccc3Cl)o2)c1 endpoint_value=1.67
structure_smiles=Cc1ccc(NC(=O)c2ccoc2)cc1-c1ccc(C(=O)NCC2CC2)cc1 endpoint_value=0.47
structure_smiles=C/C(Nc1ccc(S(N)(=O)=O)cc1)=C1/C(=O)Nc2ccccc21 endpoint_value=2.86
structure_smiles=CN(C)CCOc1ccc(-c2cc(-c3ccc4c(c3)CCC4=NO)c(-c3ccncc3)o2)cc1 endpoint_value=0.18
structure_smiles=COc1ccc2ncn(-c3cc(O[C@H](C)c4ccccc4Cl)c(C(N)=O)s3)c2c1 endpoint_value=3.29
structure_smiles=COc1cc(Nc2ncc3c(C)nc(-c4cccc(C(F)(F)F)c4)n3n2)cc(OC)c1OC endpoint_value=2
structure_smiles=CCC(=O)Nc1ccc(C)c(-c2ccc(C(=O)NCC3CC3)cc2)c1 endpoint_value=1.55
structure_smiles=COc1ccc(-c2ccc3c(NC(=O)C4CC4)n[nH]c3n2)cc1 endpoint_value=-0.78
structure_smiles=Fc1ccc(-c2ncn(C3CCNCC3)c2-c2ccnc(Oc3ccc(Oc4ccccc4)cc3)n2)cc1 endpoint_value=0.87
structure_smiles=CN(C)CCCNc1nccc(-c2c(-c3ccc(F)cc3)nn3cc(C(F)(F)F)ccc23)n1 endpoint_value=1.32
structure_smiles=C#Cc1cccc(Nc2ncnc3ccc(OCCCCNCCS(C)(=O)=O)cc23)c1 endpoint_value=39.5
structure_smiles=CNC(=O)c1cncc(/C=C/c2c(C)cccc2C)c1 endpoint_value=1.36
structure_smiles=O=C(Nc1n[nH]c2cc(-c3cc(F)ccc3F)ccc12)C1CC1 endpoint_value=1.3
structure_smiles=CCN(CC)Cc1ccc(Nc2nccc(-c3cnn4ncccc34)n2)cc1 endpoint_value=23
structure_smiles=CCc1nccc2c1nc(-c1nonc1N)n2CC endpoint_value=1.23
structure_smiles=CCS(=O)(=O)c1ccc(OC)c(Nc2ncc(-c3cccc(-c4ccccc4F)c3)o2)c1 endpoint_value=5.63
structure_smiles=Cc1ccc(C(=O)NC2CCC2)cc1-c1ccc(C(=O)NCC2CC2)cc1 endpoint_value=1.55
structure_smiles=COc1cc2ncn(-c3cc(OCc4cccs4)c(C(N)=O)s3)c2cc1OC endpoint_value=2.01
structure_smiles=COc1ccc2cc(-c3c(-c4ccncc4)nc(-c4ccc(S(C)(=O)=O)cc4C)n3C)ccc2c1 endpoint_value=2.08
structure_smiles=Fc1ccc(-c2ncn(C3CCNCC3)c2-c2ccnc(Oc3ccc(F)c(F)c3)n2)cc1 endpoint_value=-0.52
structure_smiles=COc1ccc(C2=C(N3CCc4ccccc43)C(=O)NC2=O)cc1 endpoint_value=4.09
structure_smiles=COc1cc2ncn(-c3cc(OCCc4ccccc4)c(C(N)=O)s3)c2cc1OC endpoint_value=-0.29
structure_smiles=Cc1nnc(-c2ccc(C)c(-c3ccc(C(=O)NCc4ccc(Cl)cc4)cc3)c2)o1 endpoint_value=1.19
structure_smiles=NC(=O)c1ccc(Oc2nccc(-c3c(-c4ccc(F)cc4)ncn3C3CCNCC3)n2)cc1 endpoint_value=1.7
